Field: Ki. System: Adenosine receptor A2a (Rattus norvegicus, UniProt P30543). Provenance: assorted publications.
Sequence (P30543 whole entry): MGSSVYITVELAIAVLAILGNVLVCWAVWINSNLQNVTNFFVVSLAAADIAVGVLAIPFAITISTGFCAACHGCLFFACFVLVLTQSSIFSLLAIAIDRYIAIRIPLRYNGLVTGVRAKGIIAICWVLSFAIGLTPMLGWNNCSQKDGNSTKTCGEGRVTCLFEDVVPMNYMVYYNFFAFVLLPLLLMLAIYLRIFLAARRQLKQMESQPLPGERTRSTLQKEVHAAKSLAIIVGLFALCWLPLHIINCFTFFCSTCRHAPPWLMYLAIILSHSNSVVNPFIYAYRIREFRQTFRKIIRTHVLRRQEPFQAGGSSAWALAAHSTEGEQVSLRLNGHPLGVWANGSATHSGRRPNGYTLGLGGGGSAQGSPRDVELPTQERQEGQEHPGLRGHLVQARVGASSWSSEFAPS
Binary label based on Ki with cut-off 200 nM: below gives met, not below gives not met.

1) Cn1c(=O)c2c(nc(SCc3ccccc3)n2C)n(C)c1=O	not met
2) O=C(C/C=C/c1ccc(Cl)c(Cl)c1)Nc1nc2ccccc2c(=O)s1	not met
3) COc1ccc(CCN2CCn3c(nc4c3c(=O)n(C)c(=O)n4C)C2)cc1OC	not met
4) CN(C)c1ccc(C(O)(C#Cc2cn3nc(-c4ccco4)nc3c(N)n2)C(F)(F)F)cc1 (stereo not given)	not met
5) COCCOc1ccc(N2CCN(Cc3cccc(-c4cc5nc(-c6ccco6)nn5c(N)n4)c3)CC2)c(C#N)c1	met
6) Cn1c(=O)c2c(nc3n2CCN(CCc2ccc(O)cc2)C3)n(C)c1=O	not met
7) O=C(N[C@H]1C(CO)O[C@@H](n2cnc3c(NC4CCCC4)ncnc32)[C@@H]1O)c1ccc([N+](=O)[O-])cc1 (single isomer, unassigned)	not met
8) Cc1cc(CN2CCCN(c3nc(N)n4nc(-c5ccco5)nc4n3)CC2)no1	met
9) Nc1nc2c(cnn2CCN2CCOCC2)c2nc(-c3ccco3)nn12	met
10) CCCOC(=O)c1c(CCSC(C)=O)c(C(=O)SCC)c(CC)[n+](C)c1-c1ccccc1	not met
11) COc1ccc(Br)cc1CCN1CCn2c(nc3c2c(=O)n(C)c(=O)n3C)C1	not met
12) Cn1c(=O)c2c(nc3n2CCN(CCCc2ccc(Cl)cc2)C3)n(C)c1=O	not met
13) C[C@@H](N)C(=O)Nc1nc2ccc(Cl)cc2c2nc(-c3ccco3)nn12	met
14) CCOC(=O)c1c(CC)c(C(=O)SCC)c(C)[n+](C)c1-c1ccccc1	not met
15) COc1ccc(-n2c(-c3sc(NC(=O)c4ccccc4)nc3-c3ccccc3)nc3ccccc3c2=O)cc1	not met
16) C[C@@H](CCOc1nc(N)c2ncn(C3O[C@H](CO)[C@H](O)[C@@H]3O)c2n1)c1ccccc1 (stereo not given in full)	not met
17) Nc1nc(C#CC2(N)CCCCC2)cn2nc(-c3ccco3)nc12	not met
18) Nc1nc(N2CCN(CCc3ccccc3)CC2)nc2nc(-c3ccco3)nn12	not met
19) Nc1nc(NC[C@H]2CCCN2Cc2ccccc2Cl)nc2nc(-c3ccco3)nn12	met
20) O=c1oc(/C=C/c2ccccc2)nc2ccccc12	not met

====

# Ki against Adenosine receptor A2a (Rattus norvegicus, UniProt P30543), merged from multiple literature sources
The label is fulfilled for Ki below 700 nM and not fulfilled for Ki equal to or exceeding 700 nM.

1) CCCC/C=C/c1nc(N)c2ncn([C@@H]3O[C@H](C(=O)NCC)[C@@H](O)[C@H]3O)c2n1	fulfilled
2) O=C(CCCc1ccccc1)N[C@H]1C(CO)O[C@@H](n2cnc3c(NC4CCCC4)ncnc32)[C@@H]1O (single isomer, unassigned)	fulfilled
3) CCCn1c(=O)c2[nH]c([C@H]3CC4C[C@@H]3[C@H]3O[C@@H]43)nc2n(CCC)c1=O	not fulfilled
4) Cn1c(=O)c2c(nc3n2CCCN3CCNCc2ccc(F)cc2)n(C)c1=O	not fulfilled
5) OC[C@H](Cc1ccccc1)Nc1nc(Cl)nc2c1ncn2C1O[C@H](CO)[C@@H](O)[C@H]1O (some centres undefined)	fulfilled
6) CCn1c(/C=C/C=C/c2ccccc2)nc2c1c(=O)n(C)c(=O)n2C	fulfilled
7) Nc1cc(NC[C@H]2CCCN2Cc2ccccc2Cl)nc2nc(-c3ccco3)nn12	fulfilled
8) CN(CCN1CCN(c2c(F)cc(F)cc2F)CC1)c1cc2nc(-c3ccco3)nn2c(N)n1	fulfilled
9) CCCOC(=O)c1c(-c2ccccc2)nc(CCO)c(C(=O)SCC)c1CCC	not fulfilled
10) Cn1c(=O)c2c(nc(/C=C/c3cccc(NC(=O)CCCCC(=O)O)c3)n2C)n(C)c1=O	fulfilled
11) O=C(CCc1ccc(Cl)c(Cl)c1)Nc1nc2ccccc2c(=O)s1	not fulfilled
12) CCCc1c2c(nc(-c3ccccc3)c1C(=O)OCC)CCSC2=O	not fulfilled
13) CCCCn1c(=O)c2c(nc3n2CCCN3CCc2ccc(OCC(=O)NCCN(CC)CC)cc2)n(CCCC)c1=O	fulfilled
14) CC(C)(C)OC(=O)N1CC[C@@H](Nc2ncnc3c2ncn3[C@@H]2O[C@H](CO)[C@@H](O)[C@H]2O)C1	not fulfilled
15) O=C(CCCc1ccccc1)Nc1nc2ccccc2c(=O)s1	fulfilled
16) CC(=O)OC(c1ccccc1)C(C)N1CCCn2c1nc1c2c(=O)n(C)c(=O)n1C (centres undefined)	not fulfilled
17) CCNC(=O)[C@H]1OC(n2cnc3c(N)nc(C#Cc4cccnc4)nc32)[C@H](O)[C@@H]1O (some centres undefined)	fulfilled
